System: Escherichia coli TOP10;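 further: peptides expressed intracellularly from a pBAD plasmid library in pooled LB shake-flask culture, induced with 0.3% L-arabinose, DNA abundance read by NGS, three biological replicates, DESeq2 with apeglm shrinkage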
PROCEDURE_TEXT: shrunken log2 fold change of peptide-encoding DNA abundance (4.5 h post-induction vs induction); higher = less antimicrobial activity (less host growth inhibition)
CONDITION_DETAILS: time post-induction: 4.5 h; library: site-saturation at positions 5, 18, 19, 20
Please note: rule met applies when shrunken log2 fold change is -0.3 or greater, and rule not met applies otherwise.

Example cases with answers are listed next.
RRIRDRPPRLPRPRPRPYPYPRP
rule met
RRIRLRPPRLPRPRPRPWYYPRP
rule met
RRIRNRPPRLPRPRPRPAHWPRP
rule met
RRIRVRPPRLPRPRPRPYCQPRP
rule not met
RRIRTRPPRLPRPRPRPCDSPRP
rule met
RRIRTRPPRLPRPRPRPIRNPRP
rule not met
RRIRFRPPRLPRPRPRPDAYPRP
rule met

Now let's try a different one.
[in] Record RRIRFRPPRLPRPRPRPNQSPRP ; criterion: shrunken log2 fold change no lower than -0.3. Met?
[out] rule not met
